The measured values listed here are drawn from patent US10947242B2.

biological target: Human recombinant PDE2A (hPDE2A) (Homo sapiens); construct: His tag (inferred from metal chelate purification); made in house; host or cells: Sf9 insect cells (baculovirus); test: In vitro assay PDE2A (SPA, 3H-cGMP hydrolysis); format: biochemical
Sequence (O00408 whole entry): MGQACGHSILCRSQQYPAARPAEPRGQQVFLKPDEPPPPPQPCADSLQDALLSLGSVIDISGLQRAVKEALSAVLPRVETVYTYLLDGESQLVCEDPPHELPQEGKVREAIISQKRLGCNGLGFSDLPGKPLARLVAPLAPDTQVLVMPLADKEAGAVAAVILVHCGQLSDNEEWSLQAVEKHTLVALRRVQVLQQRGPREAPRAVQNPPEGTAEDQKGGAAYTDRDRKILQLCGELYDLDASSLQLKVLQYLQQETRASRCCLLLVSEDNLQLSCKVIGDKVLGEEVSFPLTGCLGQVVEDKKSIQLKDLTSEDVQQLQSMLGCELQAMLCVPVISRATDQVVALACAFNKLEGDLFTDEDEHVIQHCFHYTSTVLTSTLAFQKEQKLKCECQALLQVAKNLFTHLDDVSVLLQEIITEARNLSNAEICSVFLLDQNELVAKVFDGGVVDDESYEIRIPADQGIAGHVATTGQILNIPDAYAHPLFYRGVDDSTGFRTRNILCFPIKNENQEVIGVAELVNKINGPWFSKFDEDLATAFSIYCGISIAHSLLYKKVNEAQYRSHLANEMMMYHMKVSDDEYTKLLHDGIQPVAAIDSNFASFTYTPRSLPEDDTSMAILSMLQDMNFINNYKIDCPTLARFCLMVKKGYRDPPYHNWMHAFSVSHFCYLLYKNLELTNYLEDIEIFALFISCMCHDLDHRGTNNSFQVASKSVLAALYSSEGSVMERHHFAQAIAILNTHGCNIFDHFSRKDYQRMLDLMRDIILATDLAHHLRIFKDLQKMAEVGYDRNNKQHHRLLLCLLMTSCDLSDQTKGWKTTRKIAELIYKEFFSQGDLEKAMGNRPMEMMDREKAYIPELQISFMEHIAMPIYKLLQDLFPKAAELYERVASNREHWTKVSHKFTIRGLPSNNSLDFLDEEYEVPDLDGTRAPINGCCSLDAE
property_measured: hPDE2A pIC50

[[record]]
compound = "Cc1cc(C(=O)N2CC[C@@H](C)[C@](F)(c3cc(C(F)F)nc4ncnn34)C2)cc(C2CC2)n1 [Compound 24b]"
property_measured = "hPDE2A pIC50"
endpoint_value = 8.19

[[record]]
compound = "Cc1cc(C(=O)N2CC[C@H](C)[C@@H](c3cc(C#N)nc4ncnn34)C2)cc(C)n1 [Compound 26b]"
property_measured = "hPDE2A pIC50"
endpoint_value = 8.17

[[record]]
compound = "Cc1cc(C(=O)N2CC[C@H](C)[C@@H](c3cc(C)nc4ncnn34)C2)cc(C)n1 [Compound 1b]"
property_measured = "hPDE2A pIC50"
endpoint_value = 5.96

[[record]]
compound = "O=C(c1ccc2ncsc2c1)N1[C@H]2CC[C@@H]1[C@H](c1cc(C(F)F)nc3ncnn13)CC2 [Compound 25b]"
property_measured = "hPDE2A pIC50"
endpoint_value = 5.96

